// Cannabinoid receptor 1 (Rattus norvegicus, UniProt P20272) IC50 records
Quick note: unit goes after the number.

- Molecule: "Cc1ccccc1C(c1ccc(Cl)cc1)N1CCN(C(=O)NC(C)(C)C)CC1 (stereo not given)"
  IC50: "680 nM"

Please provide the recorded IC50 for Cc1ccccc1C(c1ccc(Cl)cc1)N1CCN(C(=O)NC2CCCCCC2)CC1 (stereo not given) , tested on Cannabinoid receptor 1 (Rattus norvegicus, UniProt P20272).
Sequence (P20272 whole entry): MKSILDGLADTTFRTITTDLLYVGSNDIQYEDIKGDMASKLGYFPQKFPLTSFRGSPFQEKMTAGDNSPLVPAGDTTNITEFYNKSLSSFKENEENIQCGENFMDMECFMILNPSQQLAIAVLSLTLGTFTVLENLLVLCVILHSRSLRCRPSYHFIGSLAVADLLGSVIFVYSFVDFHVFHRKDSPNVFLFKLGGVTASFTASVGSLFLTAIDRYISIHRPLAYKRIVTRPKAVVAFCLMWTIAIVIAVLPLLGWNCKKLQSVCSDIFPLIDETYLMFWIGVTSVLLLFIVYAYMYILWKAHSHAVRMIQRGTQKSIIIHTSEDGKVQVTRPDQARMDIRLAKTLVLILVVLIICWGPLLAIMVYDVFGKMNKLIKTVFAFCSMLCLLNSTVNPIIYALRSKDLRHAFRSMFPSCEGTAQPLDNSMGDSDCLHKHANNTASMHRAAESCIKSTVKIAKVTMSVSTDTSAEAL
151 nM

GET /values?readout=IC50&system=Cannabinoid receptor 1 (Rattus norvegicus, UniProt P20272)&item= O=C(NC1CCCCCC1)C(=O)N1CCN(C(c2ccc(Cl)cc2)c2ccccc2Cl)CC1 (stereo not given)
229 nM

Entry O=C(NC1CCCCC1)C(=O)N1CCN(C(c2ccc(Cl)cc2)c2ccccc2Cl)CC1 (stereo not given) , system Cannabinoid receptor 1 (Rattus norvegicus, UniProt P20272): what IC50 was measured?
226 nM

Request: IC50, test system Cannabinoid receptor 1 (Rattus norvegicus, UniProt P20272), entry Cc1ccccc1C(c1ccc(Cl)cc1)N1CCN(C(=O)NCC2CCCCC2)CC1 (stereo not given)
291 nM

====

System name: Cannabinoid receptor 2 (Homo sapiens, UniProt P34972)
Sequence (P34972 whole entry): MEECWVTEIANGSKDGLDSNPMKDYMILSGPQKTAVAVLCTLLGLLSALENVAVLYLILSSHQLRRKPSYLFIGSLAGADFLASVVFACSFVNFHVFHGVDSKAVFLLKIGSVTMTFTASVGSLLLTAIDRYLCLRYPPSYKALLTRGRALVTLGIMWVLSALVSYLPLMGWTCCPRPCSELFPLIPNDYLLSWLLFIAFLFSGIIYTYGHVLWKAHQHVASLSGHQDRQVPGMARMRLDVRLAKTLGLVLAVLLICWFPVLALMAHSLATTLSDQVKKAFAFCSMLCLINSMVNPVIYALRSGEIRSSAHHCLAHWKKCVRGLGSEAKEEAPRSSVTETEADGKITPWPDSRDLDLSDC
Protocol summary: Displacement of [3H]WIN-55212-2 from human CB2 receptor expressed in CHOK1 cells
Readout label: IC50

Recorded IC50 for O=C(NC1CCCCC1)N1CCN(C(c2ccc(Cl)cc2)c2ccccc2C(F)(F)F)CC1 (stereo unspecified) , please?
> 10 µM

Consider the molecule shown here: O=C(NC1CCCCCC1)N1CCN(C(c2ccc(Br)cc2)c2ccccc2Cl)CC1 (stereo unspecified) What is its recorded IC50?
> 10 µM

Report IC50 for O=C(NCC1CCCCC1)N1CCN(C(c2ccc(Cl)cc2)c2ccccc2C(F)(F)F)CC1 (stereo unspecified) please.
> 10 µM

====

Observed pIC50 for Cannabinoid receptor 1 (Rattus norvegicus, UniProt P20272), reported per entry below.
// returns pIC50 (minus log10 of molar concentration), number only

Query pIC50 on Cannabinoid receptor 1 (Rattus norvegicus, UniProt P20272) for CCCCCC(=O)N1CCN(C(c2ccc(Cl)cc2)c2ccc(Cl)cc2)CC1
5.94

Cannabinoid receptor 1 (Rattus norvegicus, UniProt P20272) / pIC50 / CC(C)(C)NC(=O)N1CCN(C(c2ccc(Cl)cc2)c2cccc(Cl)c2Cl)CC1 (stereo not given) : value?
6.11

Notebook entry, Cannabinoid receptor 1 (Rattus norvegicus, UniProt P20272) assay: pIC50 of O=C(NC1CCCCCC1)N1CCN(C(c2ccc(Cl)cc2)c2cccc(Cl)c2Cl)CC1 (stereo not given) = ?
6.80

API: value(readout=pIC50, system=Cannabinoid receptor 1 (Rattus norvegicus, UniProt P20272)) for record O=C(NC1CCCCC1)N1CCN(C(c2ccc(Cl)cc2)c2ccc(Cl)cc2)CC1
6.04

GET /values?readout=pIC50&system=Cannabinoid receptor 1 (Rattus norvegicus, UniProt P20272)&item= O=C(NC1CCCCCC1)N1CCN(C(c2ccc(Cl)cc2)c2ccccc2Cl)CC1 (stereo not given)
7.18

Provide the documented pIC50 with Cannabinoid receptor 1 (Rattus norvegicus, UniProt P20272) as the system for O=C(NCC1CCCCC1)N1CCN(C(c2ccc(Cl)cc2)c2ccccc2Cl)CC1 (stereo not given)
6.72

What reported pIC50 corresponds to O=C(NCC1CCCCC1)N1CCN(C(c2ccc(Cl)cc2)c2ccc(Cl)cc2Cl)CC1 (stereo not given) on Cannabinoid receptor 1 (Rattus norvegicus, UniProt P20272)?
6.58

Find the measured pIC50: item O=C(C1CCC1)N1CCN(C(c2ccc(Cl)cc2)c2ccc(Cl)cc2)CC1 , target or system Cannabinoid receptor 1 (Rattus norvegicus, UniProt P20272).
5.97

What pIC50 appears in the records for this molecule with Cannabinoid receptor 1 (Rattus norvegicus, UniProt P20272)? O=C(NCC1CCCCC1)N1CCN(C(c2ccc(Cl)cc2)c2ccccc2C(F)(F)F)CC1 (stereo not given)
6.28

Write down the reported pIC50 of O=C(NCC1CCCCC1)N1CCN(C(c2ccc(Br)cc2)c2ccccc2Cl)CC1 (stereo not given) , test system: Cannabinoid receptor 1 (Rattus norvegicus, UniProt P20272).
6.90
